- ASSAY_SYSTEM: OCT2/SLC22A2 (Homo sapiens, UniProt O15244)
- Construct: investigated in ciPTEC-14.4 by measuring the activity and expression of the solute carrier tansporter (SLC) OCT2/SLC22A2; endogenous in cells; host or cells: ciPTEC-14.4 grown on Transwell filters
- Sequence (O15244 1-555): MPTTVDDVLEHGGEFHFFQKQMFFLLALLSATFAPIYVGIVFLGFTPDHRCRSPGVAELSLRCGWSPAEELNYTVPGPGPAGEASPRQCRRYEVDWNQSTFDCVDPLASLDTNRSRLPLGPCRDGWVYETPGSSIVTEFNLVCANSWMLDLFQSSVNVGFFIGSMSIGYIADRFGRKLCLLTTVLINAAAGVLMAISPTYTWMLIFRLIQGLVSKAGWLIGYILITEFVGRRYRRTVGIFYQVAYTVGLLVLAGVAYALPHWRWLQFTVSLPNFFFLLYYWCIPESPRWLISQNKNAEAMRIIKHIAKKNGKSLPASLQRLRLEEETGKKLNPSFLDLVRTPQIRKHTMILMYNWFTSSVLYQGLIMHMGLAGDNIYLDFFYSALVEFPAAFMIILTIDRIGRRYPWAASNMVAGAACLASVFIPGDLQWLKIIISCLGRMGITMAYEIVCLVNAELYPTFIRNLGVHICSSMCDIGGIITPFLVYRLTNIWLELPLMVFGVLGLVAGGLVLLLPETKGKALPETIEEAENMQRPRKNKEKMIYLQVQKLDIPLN
- METHOD: OCT2/SLC22A2 activity (basolateral ASP uptake)
- Assay type: cell-based
READOUT_LABEL: inhibition at 1 min, 1 μM (%)

INSERT INTO assay_data (compound_structure_string, assay_system, endpoint_value) VALUES
  ('CN(C)c1ccc(/C=C/c2cc[n+](C)cc2)cc1', 'OCT2/SLC22A2 (Homo sapiens, UniProt O15244)', 30);

###

- ASSAY_SYSTEM: OCT2/SLC22A2 (Homo sapiens)
- Construct: investigated in ciPTEC-14.4 by measuring the activity and expression of the solute carrier tansporter (SLC) OCT2/SLC22A2; endogenous in cells; host or cells: ciPTEC-14.4 grown on Transwell filters
- METHOD: OCT2/SLC22A2 activity (basolateral ASP uptake)
- Format: cell-based
- CONDITION_LABEL: 100 μM TPA, 1 μM ASP, 1 min 37° C., basal compartment, p<0.05, read-out: inhibition of ASP transport
- Protocol: Transport of xenobiotics across the basolateral membrane was investigated in ciPTEC-14.4 by measuring the activity and expression of the solute carrier tansporter (SLC) OCT2/SLC22A2 using a method adapted from Brown et al. Cells were grown on Transwell®-Clear polyester membranes as described before. […] Data are expressed as mean+i-SE.
READOUT_LABEL: inhibition at 1 min, 100 μM (%)

INSERT INTO measurements (compound, assay_system, reading_unit, endpoint_value) VALUES
  ('CCCCC[N+](CCCCC)(CCCCC)CCCCC [TPA, tetrapentylammonium]', 'OCT2/SLC22A2 (Homo sapiens)', '%', 36);
